Reference source: BindingDB's records for doi:10.7270/Q2MP51PC

For reference, pIC50 measured on UniProt P09871:
pIC50: −log10 of the molar value.
ENDPOINT LABEL: pIC50

1) O=c1cc(-c2ccccc2)[nH]c2nc(-c3ccccc3)nn12 :: < 4.30
2) Cc1ccc(CCN2C(=O)CCC2(C)C(=O)NC2CCCC2)cc1 (stereo not given) :: < 4.30
3) CC1CNC(=Nc2cccc3ccccc23)S1 (stereo not given) :: < 4.30
4) CCOC(=O)C1CCN(C(=O)CSc2ccccc2)CC1 :: < 4.30
5) C#CCOC(=O)c1ccccc1C(=O)n1nnc2ccccc21 :: 5.37
6) O=C(O)CCCC(=O)Nc1ccccc1C(=O)O :: < 4.30
7) CCCC(=O)n1nc(-c2ccco2)nc1SCc1ccccc1 :: < 4.30
8) Cc1ccc(NS(=O)(=O)c2cc(C(=O)N3CCOCC3)ccc2C)cc1C :: < 4.30
9) CCC(C)N1CC23C=CC(O2)C(C(=O)OCc2ccccc2)C3C1=O (stereo not given) :: < 4.30
10) CC(C)CN(CC(C)C)S(=O)(=O)N1CCC(C(=O)NCc2ccc(F)cc2)CC1 :: < 4.30

---

Target sequence: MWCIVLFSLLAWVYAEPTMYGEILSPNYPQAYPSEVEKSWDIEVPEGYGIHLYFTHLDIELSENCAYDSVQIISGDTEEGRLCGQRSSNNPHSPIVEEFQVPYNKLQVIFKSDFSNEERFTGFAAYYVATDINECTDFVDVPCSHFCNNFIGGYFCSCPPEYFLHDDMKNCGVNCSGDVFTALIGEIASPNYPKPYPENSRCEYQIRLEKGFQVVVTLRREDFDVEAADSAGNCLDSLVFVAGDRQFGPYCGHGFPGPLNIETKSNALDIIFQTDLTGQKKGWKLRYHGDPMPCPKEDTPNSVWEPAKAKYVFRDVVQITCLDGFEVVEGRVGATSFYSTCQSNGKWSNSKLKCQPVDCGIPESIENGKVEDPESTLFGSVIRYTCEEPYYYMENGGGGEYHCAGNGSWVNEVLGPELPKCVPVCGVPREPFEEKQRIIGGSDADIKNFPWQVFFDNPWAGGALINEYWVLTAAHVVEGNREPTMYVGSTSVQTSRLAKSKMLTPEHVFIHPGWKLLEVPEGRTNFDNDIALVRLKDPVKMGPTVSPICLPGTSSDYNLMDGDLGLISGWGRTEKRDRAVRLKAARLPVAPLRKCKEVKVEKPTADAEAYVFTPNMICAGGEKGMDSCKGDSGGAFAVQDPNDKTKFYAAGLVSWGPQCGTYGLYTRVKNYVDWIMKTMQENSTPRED
IC50 for assorted molecules
ENDPOINT LABEL: IC50

1) CCOC(=O)C1CCN(C(=O)c2cc(OCC)c(OCC)c(OCC)c2)CC1 :: > 50 µM
2) Cc1nn(C)c(C)c1NC(=O)c1ccnn1C :: > 50 µM
3) CCc1ccc(C2CC(c3ccccc3Cl)Nc3nc(N)nn32)cc1 (configuration not stated) :: > 50 µM
4) CC(C)NC(=O)c1cc(-c2ccc(Br)cc2)on1 :: > 50 µM
5) CCCC(=O)Nc1ccc(C(=O)n2nnc3ccccc32)cc1 :: 0.38 µM
6) CN(CCNC(=O)Cn1c(=O)sc2ccccc21)Cc1ccccc1 [MLS000116175] :: > 50 µM
7) COc1ccc2cc(CCNC(=O)C(C)C)c(=O)[nH]c2c1 :: > 50 µM
8) O=C(c1ccco1)N1CCN(S(=O)(=O)c2ccc(S(=O)(=O)NC3CCCCC3)cc2)CC1 [MLS000068710] :: > 50 µM
9) O=C(O)[C@@H](c1ccccc1)N1Cc2ccccc2C1=O :: > 50 µM
10) COC(=O)COc1cccc(NC(=O)c2ccccc2)c1 :: > 50 µM
11) O=C(c1ccc2c(c1)OCO2)n1nnc2ccccc21 :: 0.85 µM
12) COc1cc(C)nc(NS(=O)(=O)c2ccccc2)n1 [MLS000100375] :: > 50 µM

---

IC50 for assorted compounds
Sequence of the target: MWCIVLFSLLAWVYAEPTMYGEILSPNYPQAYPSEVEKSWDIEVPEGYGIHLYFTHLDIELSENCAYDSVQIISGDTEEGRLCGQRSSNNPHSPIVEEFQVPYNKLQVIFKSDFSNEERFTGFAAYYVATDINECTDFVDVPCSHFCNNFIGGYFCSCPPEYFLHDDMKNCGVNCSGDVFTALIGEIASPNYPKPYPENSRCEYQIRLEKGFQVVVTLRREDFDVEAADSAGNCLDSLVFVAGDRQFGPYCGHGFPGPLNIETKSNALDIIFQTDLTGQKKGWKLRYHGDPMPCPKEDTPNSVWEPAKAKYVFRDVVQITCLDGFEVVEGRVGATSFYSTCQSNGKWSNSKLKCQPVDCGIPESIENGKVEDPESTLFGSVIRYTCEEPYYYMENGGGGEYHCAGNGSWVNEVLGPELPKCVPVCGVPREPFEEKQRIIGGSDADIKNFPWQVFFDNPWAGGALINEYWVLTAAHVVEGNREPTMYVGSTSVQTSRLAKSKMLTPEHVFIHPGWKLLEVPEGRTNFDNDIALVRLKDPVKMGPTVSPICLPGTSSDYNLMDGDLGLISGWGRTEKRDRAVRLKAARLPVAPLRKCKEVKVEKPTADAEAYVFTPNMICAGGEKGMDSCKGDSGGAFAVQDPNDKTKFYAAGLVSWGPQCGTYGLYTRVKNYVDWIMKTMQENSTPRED
ENDPOINT LABEL: IC50

1. CN(C)c1ccc(C(=O)c2ccccc2C(=O)O)c(O)c1 :: > 50 µM
2. CCCS(=O)(=O)N1CCC(C(=O)N2CCN(Cc3ccccc3)CC2)CC1 :: > 50 µM
3. O=C(c1csc2c1CCCC2)n1cccn1 :: 3.83 µM
4. Cc1cc(NC(=O)c2cccc(S(=O)(=O)N3CCCCCC3)c2)n(-c2ccccn2)n1 :: > 50 µM
5. CCOc1ccc(-n2c(O)cc(N3CCN(c4ccccc4F)CC3)c2O)cc1 :: > 50 µM
6. COc1ccc(CC(=O)Nc2cccc(-c3nnc(-c4cccc(C)c4)o3)c2)cc1OC :: > 50 µM
7. CCOC(=O)Cc1nnc(NC(=O)C(CC)Sc2nnc3c4ccccc4n(C)c3n2)s1 (centres undefined) :: > 50 µM
8. Cc1noc(C)c1COC(=O)c1ccccc1NC(=O)Cc1ccccc1 :: > 50 µM
9. CCC(=O)Oc1ccc(C(CC)C(CC)c2ccc(OC(=O)CC)cc2)cc1 (centres undefined) [HEXESTROL DIPROPIONATE] :: > 50 µM
10. CCc1ccc(-c2cn(-c3nc(C)cc(C)n3)c(=N)o2)cc1 :: > 50 µM
11. CSc1nc(-c2ccco2)nn1C(=O)c1cccs1 :: 0.88 µM
12. Cc1csc(NC(=O)c2ccc(C)c(S(=O)(=O)N3CCCCC3)c2)n1 :: > 50 µM
13. COc1ccc(Nc2cc(C)nc3nc(C)nn23)c(OC)c1 :: > 50 µM
14. NC(=O)C1(N2CCCCC2)CCN(C(=O)Nc2ccccc2C(F)(F)F)CC1 :: > 50 µM
15. CC(C)NS(=O)(=O)c1cc(C(=O)O)ccc1Cl :: > 50 µM
16. Cc1nnc(SC(=O)N2c3ccccc3Sc3ccccc32)s1 :: > 50 µM
17. COc1ccc(C(=O)n2ccc(C)n2)cc1Br :: > 50 µM
18. CCCCN1C(=O)/C(=C2\SC(N3CCCCC3)=NC2=O)c2ccccc21 [MLS000111979] :: > 50 µM
19. CCN1CCN(C=Nc2nc3c(s2)CCCC3)CC1 :: > 50 µM
20. COc1ccc(-c2nc(SC)n(C(=O)c3ccco3)n2)cc1 :: 15.6 µM
21. COc1ccc(NC(=O)CSC2=NC3=C(C(=O)CCC3)C(c3ccco3)C2C#N)c(OC)c1 (centres undefined) [SMR000042323] :: > 50 µM
22. CCOC(=O)c1ccc(CSc2nncn2N)o1 :: > 50 µM
23. Cc1ccc(-n2c(SCC(=O)N3CCCC3)nc3c(c2=O)SCC3)cc1 :: > 50 µM
24. Nc1nc(C(=O)N2CCOCC2)nn1C(=O)c1ccc(Cl)cc1 :: 12.1 µM
25. COc1ccc(C(=O)SC2=NCCS2)cc1OC :: > 50 µM
26. Cc1coc2c(C)c3oc(=O)c4c(c3cc12)CCCC4 :: > 50 µM
27. O=C(NC1CCCC1)c1cccc(S(=O)(=O)N2CCCCC2)c1 [MLS000065413] :: > 50 µM
28. COC(=O)c1ccc(OC(=O)c2ccco2)cc1 :: 17.1 µM
29. Cc1cc(NS(=O)(=O)c2ccc(NC(=O)COc3ccccc3C(C)C)cc2)no1 :: > 50 µM
30. c1ccc(Cc2nn3c(COc4ccccc4)nnc3s2)cc1 :: > 50 µM
31. O=C(COC(=O)c1cnccn1)c1ccc(OC(=O)c2ccccc2)cc1 :: > 50 µM
32. Cc1nc2sc(C(c3cccs3)N3CCN(Cc4ccccc4)CC3)c(O)n2n1 (centres undefined) :: > 50 µM
33. O=C(Nc1nccs1)c1ccc(Cl)c(S(=O)(=O)N2CCOCC2)c1 :: > 50 µM
34. COCCn1c(C)cc(C(=O)CSc2nc3ccccc3o2)c1C :: > 50 µM
35. CC(C)(C)NC(=O)C(c1ccco1)N(Cc1ccc2c(c1)OCO2)C(=O)Cn1nnc2ccccc21 (centres undefined) :: > 50 µM
36. CCSc1ccccc1C(=O)n1nnc2ccccc21 :: 31 µM
37. O=C(Cn1c(=O)oc2cc(S(=O)(=O)N3CCc4ccccc43)ccc21)N1CCCCC1 :: > 50 µM
38. CC1CCCN(C(C(=O)Nc2ccc3c(c2)OCO3)c2ccccc2)C1 (centres undefined) [MLS000116117] :: > 50 µM
39. Cc1ccc(Cn2ncc3c(N4CCN(c5ccccc5C)CC4)ncnc32)cc1 :: > 50 µM
40. O=C1CCCC2=NC(Nc3nc4ccccc4o3)=NC3(CCCCC3)C12 (centres undefined) :: > 50 µM
41. CCCCC(=O)Nc1ccc(NC(=O)c2cccnc2)cn1 [MLS000068397] :: > 50 µM
42. O=C(Nc1cc(Cl)ccc1N1CCOCC1)c1cnccn1 [MLS000076142] :: > 50 µM
43. CCC(=O)Nc1cccc(-c2nc3ccccc3c(=O)o2)c1 [MLS000090237] :: 34.7 µM
44. Cc1ccc(S(=O)(=O)n2nc(OC(=O)c3cccs3)cc2N)cc1 :: > 50 µM
